Binarize melting point at 200 °C; below is rule met, at or above is rule not met.

compound="CCCN(c1ncc(C(=O)O)cn1)c1cc2c(cc1C)C(C)(C)CCC2(C)C [Compound 7]" qualitative_label="rule met"
compound="CCCN(c1ncc(C(=O)O)cn1)c1cc(C(C)(C)C)ccc1C(C)(C)C [Compound 11]" qualitative_label="rule not met"
compound="Cc1cc2c(cc1N(CC1CC1)c1ncc(C(=O)O)cn1)C(C)(C)CCC2(C)C [Compound 8]" qualitative_label="rule met"
compound="Cc1cc2c(cc1Nc1ncc(C(=O)O)cn1)C(C)(C)CCC2(C)C [Compound 5]" qualitative_label="rule not met"

Each recorded value in this set is attributed to patent US6869959B1.
